Entries and their growth inhibition values follow.
Test system: SUDIPGVI (diffuse intrinsic pontine glioma line)
Test name: growth inhibition (% activity, log2 RLU normalised to DMSO / staurosporine); higher = more growth inhibition
Measurement conditions: 33 µM
The answer is to be given in %; state only the numeric part.

Examples with answers:
>  <Compound>
CSc1nc2cc(Cl)c(Oc3cccc(Cl)c3Cl)cc2[nH]1

>  <U>
%

>  <Measurement>
1.54

$$$$
>  <Compound>
CNCCCC12CCC(c3ccccc31)c1ccccc12

>  <U>
%

>  <Measurement>
-4.58

$$$$
>  <Compound>
CCCC1O[C@@H]2C[C@H]3[C@@H]4CCC5=CC(=O)C=C[C@]5(C)[C@H]4[C@@H](O)C[C@]3(C)[C@]2(C(=O)CO)O1 (stereo partly drawn)

>  <U>
%

>  <Measurement>
-5.45

$$$$
>  <Compound>
COC(=O)/C=C/C(=O)OC

>  <U>
%

>  <Measurement>
-1

$$$$
>  <Compound>
C[C@]12CC[C@@H]3c4ccc(O)cc4CC[C@H]3[C@@H]1CCC2=O

>  <U>
%

>  <Measurement>
0.844

$$$$
>  <Compound>
CC1(C)S[C@@H]2[C@H](NC(=O)C(C(=O)O)c3ccccc3)C(=O)N2[C@H]1C(=O)O (stereo partly drawn)

>  <U>
%

>  <Measurement>
3.27

$$$$

Next compound, growth inhibition to be filled in.
Task item: # lookup: growth inhibition of CC(=O)Nc1ncc([N+](=O)[O-])s1
Reply: -0.127
